- system.name: Histone deacetylase (Homo sapiens) (UniProt Q13547+O15379+Q9UBN7+Q92769+Q9UQL6+Q8WUI4+Q9BY41+Q96DB2+P56524+Q9UKV0+Q969S8);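 note: test system was nuclear extract prepared from HeLa cells rather than intact cells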
- condition.context: HeLa, at 1 µM
- Description: Inhibition of HDAC in human HeLa cell nuclear extracts at 1 uM
Output TRUE for inhibition not less than 80%; output FALSE otherwise.

COc1ccc(/C=C/C(=O)c2cc(OC)c(OC)c(OC)c2)cc1OCCCCCCC(=O)NO	TRUE
COc1ccc(/C=C/C(=O)c2cc(OC)c(OC)c(OC)c2)cc1OCCCCCCCC(=O)NO	TRUE
COc1ccc(/C=C/C(=O)c2cc(OC)c(OC)c(OC)c2)cc1OCCCC(=O)NO	FALSE
COc1ccc(/C=C(\C)C(=O)c2cc(OC)c(OC)c(OC)c2)cc1OCCCCCC(=O)NO	FALSE
COc1ccc(/C=C(\C)C(=O)c2cc(OC)c(OC)c(OC)c2)cc1OCCCCCCC(=O)NO	TRUE

Ask | Given the entry `COc1ccc(/C=C(\C)C(=O)c2cc(OC)c(OC)c(OC)c2)cc1OCCCC(=O)NO` , answer whether its inhibition meets or surpasses 80%.
Reply | FALSE

Ask | Given the entry `COc1ccc(/C=C(\C)C(=O)c2cc(OC)c(OC)c(OC)c2)cc1OCCCCC(=O)NO` , answer whether its inhibition meets or surpasses 80%.
Reply | FALSE

Ask | Given the entry `COc1ccc(/C=C/C(=O)c2cc(OC)c(OC)c(OC)c2)cc1OCCCCC(=O)NO` , answer whether its inhibition meets or surpasses 80%.
Reply | FALSE

Ask | Given the entry `COc1ccc(/C=C(\C)C(=O)c2cc(OC)c(OC)c(OC)c2)cc1OCCCCCCCC(=O)NO` , answer whether its inhibition meets or surpasses 80%.
Reply | TRUE
